Reported Ki is given for each of the following molecules.
target_or_system: Prostaglandin E2 receptor EP2 subtype (Mus musculus, UniProt Q62053)
Sequence (Q62053 whole entry): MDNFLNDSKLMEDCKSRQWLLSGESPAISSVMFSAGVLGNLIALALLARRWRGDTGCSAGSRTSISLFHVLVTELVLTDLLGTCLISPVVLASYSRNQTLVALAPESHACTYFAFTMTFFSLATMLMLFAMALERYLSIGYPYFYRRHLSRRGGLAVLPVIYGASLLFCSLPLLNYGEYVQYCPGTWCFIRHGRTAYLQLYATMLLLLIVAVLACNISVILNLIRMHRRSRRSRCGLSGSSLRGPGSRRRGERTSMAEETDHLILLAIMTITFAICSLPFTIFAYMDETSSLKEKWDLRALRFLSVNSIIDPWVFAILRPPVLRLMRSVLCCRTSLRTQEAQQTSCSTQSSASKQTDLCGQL

                                        mol                          target_or_system   result
0  O=C(O)CCCSCCN1C(=O)OC[C@@H]1/C=C/[C@@H](O)Cc1cccc(Cl)c1  Prostaglandin E2 receptor EP2 subtype (Mus musculus, UniProt Q62053)  > 10 µM
1  O=C(O)CCCSCCN1C(=O)SC[C@@H]1/C=C/[C@@H](O)Cc1ccccc1  Prostaglandin E2 receptor EP2 subtype (Mus musculus, UniProt Q62053)  > 10 µM
2  Cc1cccc(C[C@H](O)/C=C/[C@H]2COC(=O)N2CCSCCCC(=O)O)c1  Prostaglandin E2 receptor EP2 subtype (Mus musculus, UniProt Q62053)  > 10 µM
3  CCc1cccc(C[C@H](O)/C=C/[C@H]2COC(=O)N2CCSCCCC(=O)O)c1  Prostaglandin E2 receptor EP2 subtype (Mus musculus, UniProt Q62053)  > 10 µM

Output measured Ki for this item: "COCc1cccc(C[C@H](O)/C=C/[C@H]2CCC(=O)N2CCSCCCC(=O)O)c1" 8.5 µM

FYI, the data here is from ChEMBL document CHEMBL1926627.
